Where do these numbers come from? They come from PubChem BioAssay (NCI).

Form field: TGI (one value per entry).
system: HCT-15 colon; assay: NCI tumour cell line growth inhibition, 48 h

{"molecule": "COc1ccc2c(Nc3ccc(NS(C)(=O)=O)cc3)c3ccccc3nc2c1", "experimental-target": "HCT-15 colon", "TGI": "11.4 µM"}
{"molecule": "O=[N+]([O-])/C(C(Cl)=C(Cl)Cl)=C1\\NCCO1", "experimental-target": "HCT-15 colon", "TGI": "> 100 µM"}
{"molecule": "NNc1nc2ccccc2c(=O)n1NC(=O)C(=O)Nc1cccc(C(F)(F)F)c1", "experimental-target": "HCT-15 colon", "TGI": "> 100 µM"}
{"molecule": "Cc1cc(O)c2c(c1O)C(=O)C13C(=C2O)C(=O)C2C(O)C1C1C(O)C3C(=O)C3=C(O)c4c(O)cc(C)c(O)c4C(=O)C321 (stereo not drawn)", "experimental-target": "HCT-15 colon", "TGI": "0.182 µM"}
{"molecule": "COc1c(C(=O)O)oc2c(OC)cccc12", "experimental-target": "HCT-15 colon", "TGI": "> 100 µM"}
{"molecule": "COC(=O)/C=C(\\C)C(=O)N(C)c1ccccc1I", "experimental-target": "HCT-15 colon", "TGI": "> 100 µM"}
{"molecule": "OCC1OC(n2ccc3c(NO)ncnc32)C(O)C1O (stereo not drawn)", "experimental-target": "HCT-15 colon", "TGI": "1.52 µM"}
{"molecule": "O=C(NCCC(F)(F)C(F)(F)C(F)(F)C(F)(F)F)NC1OC(CO)C(O)C(O)C1O (stereo not drawn)", "experimental-target": "HCT-15 colon", "TGI": "> 100 µM"}
